Measured ED50 accompanies every entry in the list below.
Tested on: Mus musculus
protocolNotes: Anticonvulsant activity against maximal electroshock-induced seizures in ip dosed Mus musculus Swiss (mouse) administered 30 min before MES induction measured at phase 2
Format: functional
Please reply with the bare figure in mg/kg and do not write the unit itself.

1) Cc1ccc(COc2ccc3c(c2)CCCc2nncn2-3)cc1 : 27.4
2) Clc1ccc(COc2ccc3c(c2)CCCc2nncn2-3)cc1 : 27.4
3) Clc1cccc(COc2ccc3c(c2)CCCc2nncn2-3)c1 : 29.5
4) CCCCOc1ccc2c(c1)CCCc1nncn1-2 : 21.2

Consider the record given below.
Ask: Field request: ED50 | item: "CCCCCOc1ccc2c(c1)CCCc1nncn1-2"
Reply: 17.5

Hey, just so you know, these numbers are from ChEMBL document CHEMBL3045006.
